Biological target: Fes (UniProt P07332)
Sequence (P07332 whole entry, looked up): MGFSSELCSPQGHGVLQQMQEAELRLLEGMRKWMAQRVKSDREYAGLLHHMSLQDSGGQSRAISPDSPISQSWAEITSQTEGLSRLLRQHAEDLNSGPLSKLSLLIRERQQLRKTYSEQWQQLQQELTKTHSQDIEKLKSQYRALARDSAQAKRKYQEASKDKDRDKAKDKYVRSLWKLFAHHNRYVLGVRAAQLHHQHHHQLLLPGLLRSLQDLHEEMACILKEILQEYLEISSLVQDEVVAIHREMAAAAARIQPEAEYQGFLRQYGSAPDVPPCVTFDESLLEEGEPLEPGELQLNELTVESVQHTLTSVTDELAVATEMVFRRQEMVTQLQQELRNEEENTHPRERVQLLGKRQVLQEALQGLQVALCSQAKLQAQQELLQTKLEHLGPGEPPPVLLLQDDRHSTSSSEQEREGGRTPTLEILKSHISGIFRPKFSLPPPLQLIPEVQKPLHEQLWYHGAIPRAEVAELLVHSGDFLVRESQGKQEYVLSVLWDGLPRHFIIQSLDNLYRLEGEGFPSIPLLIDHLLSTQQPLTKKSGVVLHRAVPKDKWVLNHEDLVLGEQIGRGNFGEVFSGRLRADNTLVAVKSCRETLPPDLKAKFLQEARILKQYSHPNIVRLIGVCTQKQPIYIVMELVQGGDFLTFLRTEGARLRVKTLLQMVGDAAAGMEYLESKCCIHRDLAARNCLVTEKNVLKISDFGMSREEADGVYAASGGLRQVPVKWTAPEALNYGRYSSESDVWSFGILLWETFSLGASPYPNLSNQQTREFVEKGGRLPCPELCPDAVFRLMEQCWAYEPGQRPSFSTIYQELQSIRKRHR
Assay: phosphorylation enrichment, bacterial display (enrichment ratio); higher = better substrate or ligand; peptides without Tyr show the background;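 note: 11-residue human phosphosite peptides and single-mutation variants displayed on the E. coli surface, counted by deep sequencing, each peptide's frequency after selection divided by its frequency in the unselected input library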;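 note: frequency after pTyr selection over input frequency; kinase dosed for 20-30% of maximal phosphorylation in three min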
endpoint-label: phosphorylation enrichment
Please give only the number in your answer, with no unit.

For the sequence shown here, LQPNNCQFCGG [CSF1R_Y969_Y969C] , give the reported phosphorylation enrichment. 0.858

Try this sequence too: LGGAMYFLEAD [PKHD1_Y452_E457D_YF] 1.09

Try this sequence too: GLTSTYVGIRK [ROBO1_Y932_A933V] 0.775

Try this sequence too: LWQSIYNLEAE [TNNT2_Y251] 1.45

Try this sequence too: AYRHGYFDEEM [PLEC_Y2971_R2969H] 1.05

Try this sequence too: PKKKQYTSIHH [APP_Y728_L723P] 0.849

Try this sequence too: ALMGLYHGQVL [HADHA_Y343] 0.823

Try this sequence too: PSGPAYRGAVP [ASAH1_Y43_T42A] 0.759

Try this sequence too: LFMGDYVDRGY [PPP2CA_Y86] 1.47

Try this sequence too: LAVNPYGPPDP 0.692

Try this sequence too: AKFPSYEKNKK [FOXL2_Y91_F90S] 0.7

Try this sequence too: ADEEFYEIIAA [FEStide_F_2014] 1.57

Try this sequence too: TQNAVYSAANF [DDX5_Y535_G533A_YF] 0.694

Try this sequence too: RNVFFYSFLLK [PTEN_Y178_Y174N_YF] 1.72

Sourced from the supplement of paper PMC10065799
